Biological target: T1, full-length human Tau (Tau441; 2N4R), recombinant (human, UniProt P10636 1-758)
T1 construct: made in E. coli, His6-Smt3 tag removed; biotinylated through amines for Octet and phage work; also called r-Tau; recombinant Tau
T1 sequence (P10636 other isoform, or with tags, fused parts or gaps limits assumed): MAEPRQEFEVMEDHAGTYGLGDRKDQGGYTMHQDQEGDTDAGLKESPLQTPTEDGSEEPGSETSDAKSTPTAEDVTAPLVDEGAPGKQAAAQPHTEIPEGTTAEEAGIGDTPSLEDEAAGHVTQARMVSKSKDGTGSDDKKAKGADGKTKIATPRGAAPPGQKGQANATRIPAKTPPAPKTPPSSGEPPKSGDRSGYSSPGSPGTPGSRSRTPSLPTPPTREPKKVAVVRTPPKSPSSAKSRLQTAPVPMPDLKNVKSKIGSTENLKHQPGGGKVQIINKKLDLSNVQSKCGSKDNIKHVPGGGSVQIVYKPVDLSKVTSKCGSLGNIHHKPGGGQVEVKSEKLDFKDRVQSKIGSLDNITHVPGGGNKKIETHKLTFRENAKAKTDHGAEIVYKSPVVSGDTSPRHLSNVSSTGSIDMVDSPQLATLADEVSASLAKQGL
Experiment: SPR Biacore
ASSAY_ENDPOINT: koff (s⁻¹)

BINDER: Clone with H1_2 (antibody, V domains shown, IgG based on hu1C7.v2) VH: EVQLLESGGGLVQPGGSLRLSCAASGFTFSRVGTSWVRQAPGKGLEWVASISGDGGSYIHYADSVKGRFTISRDNSKNTLYLQMNSLRAEDTAVYYCARLPYWGQGTLVTVSS VL: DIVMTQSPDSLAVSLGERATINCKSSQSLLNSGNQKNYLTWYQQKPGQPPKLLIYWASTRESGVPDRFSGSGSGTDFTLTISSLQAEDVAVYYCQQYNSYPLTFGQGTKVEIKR
UNIT_ANNOTATION: s⁻¹
NUMERIC_RESULT: 0.000132
//
BINDER: Clone with L1_3-1 (antibody, V domains shown, based on hu1C7.v2) VH: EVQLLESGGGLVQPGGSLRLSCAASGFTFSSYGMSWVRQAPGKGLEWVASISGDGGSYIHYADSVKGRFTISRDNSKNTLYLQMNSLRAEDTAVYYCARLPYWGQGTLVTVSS VL: DIVMTQSPDSLAVSLGERATINCKSSQSLVRSGTQKDYLVWYQQKPGQPPKLLIYWASTRESGVPDRFSGSGSGTDFTLTISSLQAEDVAVYYCQQYNSYPLTFGQGTKVEIK
UNIT_ANNOTATION: s⁻¹
NUMERIC_RESULT: 0.000213
//
BINDER: Clone with L1_3-7 (antibody, V domains shown, based on hu1C7.v2) VH: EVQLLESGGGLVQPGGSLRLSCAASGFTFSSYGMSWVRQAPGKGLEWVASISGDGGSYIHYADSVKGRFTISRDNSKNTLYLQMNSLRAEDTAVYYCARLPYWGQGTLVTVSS VL: DIVMTQSPDSLAVSLGERATINCKSSQSLHKSGTQKDYLVWYQQKPGQPPKLLIYWASTRESGVPDRFSGSGSGTDFTLTISSLQAEDVAVYYCQQYNSYPLTFGQGTKVEIK
UNIT_ANNOTATION: s⁻¹
NUMERIC_RESULT: 0.000308
//
BINDER: Clone with H1_4-1 (antibody, V domains shown, based on hu1C7.v2) VH: EVQLLESGGGLVQPGGSLRLSCAASGFTFSGPGMSWVRQAPGKGLEWVASISGDGGSYIHYADSVKGRFTISRDNSKNTLYLQMNSLRAEDTAVYYCARLPYWGQGTLVTVSS VL: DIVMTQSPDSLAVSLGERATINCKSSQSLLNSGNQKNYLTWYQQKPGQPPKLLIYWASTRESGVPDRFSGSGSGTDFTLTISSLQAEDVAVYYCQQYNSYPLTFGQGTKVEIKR
UNIT_ANNOTATION: s⁻¹
NUMERIC_RESULT: 0.000144
//
BINDER: Clone with L1_3, L3, and H1_HCv2 (antibody, V domains shown) VH: EVQLLESGGGLVQPGGSLRLSCAASGFTFSQVGMSWVRQAPGKGLEWVASISGDGGSYIHYADSVKGRFTISRDNSKNTLYLQMNSLRAEDTAVYYCARLPYWGQGTLVTVSS VL: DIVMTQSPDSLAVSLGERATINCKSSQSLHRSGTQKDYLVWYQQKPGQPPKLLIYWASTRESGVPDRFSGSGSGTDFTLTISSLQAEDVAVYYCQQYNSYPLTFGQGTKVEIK
UNIT_ANNOTATION: s⁻¹
NUMERIC_RESULT: 0.000116
